Overview of recorded OD450 for various binders
# experimental.system: Peptide 1: Biotin-…-[Tyr(PC)]-acid
# Sequence (peptide, as listed by the source): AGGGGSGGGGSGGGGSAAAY
# protocol.text: scFv ELISA

# binder, quantity.unit, OD450
records = [
    ("PcOxP_DB03_A05 (scFv, V domains shown, scFv in periplasmic extract) VH: EVQLLESGGGLVQPGGSLRLSCAASGFTFSEFYMEWVRQAPGKGLEWVAASRNKANDYTTEYADSVKGRFTISRDNSKNTLYLQMNSLRAEDTAVYYCARDYYGSSYWYFDVWGQGTLVTVSS VL: DIVMTQSPDSLAVSLGERATINCTASESLYSSKHKVHYLAWYQQKPGQPPKLLIYGASNRAIGVPDRFSGSGSGTDFTLTISSLQAEDVAVYYCAQFYFYPLTFGGGTKVEIK", "OD450", 0.93),
    ("PcOxP_DB04_F11 (scFv, V domains shown, scFv in periplasmic extract) VH: EVQLLESGGGLVQPGGSLRLSCAASGFTGSDFYMEWVRQAPGKGLEWVAASRGKGNSYTTEYADSVKGRFTISRDNSKNTLYLQMNSLRAEDTAVYYCARDYYGSSTWYFDVWGQGTLVTVSS VL: DIQMTQSPSSLSASVGDRVTITCTASESLYSSKHKVHYLAWYQQKPGKAPKLLIYGASNRYAGVPSRFSGSGSGTDFTLTISSLQPEDFATYYCGQFYSYPLTFGGGTKVEIK", "OD450", 0.58),
    ("PcOxP_DB03_A08 (scFv, V domains shown, scFv in periplasmic extract) VH: EVQLLESGGGLVQPGGSLRLSCAASGFTFSDVYMEWVRQAPGKGLEWVAASRNKANDYTTEYADSVKGRFTISRDNSKNTLYLQMNSLRAEDTAVYYCARDYYGSSYWYFDVWGQGTLVTVSS VL: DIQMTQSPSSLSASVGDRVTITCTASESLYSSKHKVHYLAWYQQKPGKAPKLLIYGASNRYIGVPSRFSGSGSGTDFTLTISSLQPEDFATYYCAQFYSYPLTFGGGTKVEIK", "OD450", 0.67),
]

Ref: patent US20250320312A1
